assay summary: Acute toxicity on rats
Format: in vivo
details: rat, in vivo, po, 14 days observation
assay readout: LD50 at 336 h (mg/kg)
Your answer should be a plain number; it is taken to be in mg/kg.

Prompt: Please report the recorded LD50 at 336 h for OC1(c2ccc(Cl)cc2)NC=N[n+]2ccc3ccccc3c21 (stereo not shown) .
Completion: 1300

###

System: reserpine ptosis
assay summary: Antagonism of reserpine ptosis on rats, p.o.
Format: in vivo
Entries and their measured Ther. index follow.
Could you respond with only the numeric value?

# count of solved cases: 3
Prompt: Please report the recorded Ther. index for OC1(c2ccc(Cl)cc2)NC=N[n+]2ccc3ccccc3c21 (centres unmarked) [Compound A] .
Completion: 92.8

Prompt: Please report the recorded Ther. index for CN(C)CCC=C1c2ccccc2CCc2ccccc21 [Amitriptyline, reference compound] .
Completion: 3.6

Prompt: Please report the recorded Ther. index for OC1(c2ccc(Cl)cc2)NC=N[n+]2ccc3ccccc3c21 (centres unmarked) [Compound B] .
Completion: 39.3

***
Prompt: Please report the recorded Ther. index for Clc1ccc(-c2ncn[n+]3ccc4ccccc4c23)cc1 [Reference compound D, reference compound] .
Completion: 16.7

Prompt: Please report the recorded Ther. index for OC1(c2ccc(Cl)cc2)NC=N[n+]2ccc3ccccc3c21 (centres unmarked) [Compound C] .
Completion: 49.0

###

Entries and their measured LD50 at 168 h follow.
assay summary: Acute toxicity on mice
Assay type: in vivo
details: mouse, in vivo, po, 7 days observation
Your answer should be a plain number; it is taken to be in mg/kg.

# count of solved cases: 2
Prompt: Please report the recorded LD50 at 168 h for CN(C)CCC=C1c2ccccc2CCc2ccccc21 [Amitriptyline, reference compound] .
Completion: 225

Prompt: Please report the recorded LD50 at 168 h for OC1(c2ccc(Cl)cc2)NC=N[n+]2ccc3ccccc3c21 (stereo not drawn) [Compound A] .
Completion: 410

# context switch: different molecule, same LD50 at 168 h
Prompt: Please report the recorded LD50 at 168 h for Clc1ccc(-c2ncn[n+]3ccc4ccccc4c23)cc1 [Reference compound D, reference compound] .
Completion: 600
